# Tested on: c-Abl (mouse);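 also: 11-residue human phosphosite peptides and single-mutation variants displayed on the E. coli surface, counted by deep sequencing, each peptide's frequency after selection divided by its frequency in the unselected input library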;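 also: frequency after pTyr selection over input frequency; kinase dosed for 20-30% of maximal phosphorylation in three min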
# assay.details: phosphorylation enrichment, bacterial display (enrichment ratio); higher = better substrate or ligand; peptides without Tyr show the background
measurement.label: phosphorylation enrichment
The answer should be a number; do not append a unit.

YFRDGYMPRQY [GSS_Y270]	0.496
LQTYHYHGHSM [PDHA1_Y289_R288H]	0.559
LSDGPYSNPFE [EPOR_Y485_YF]	0.701
EVVGRYSVHNA [MLH1_Y183]	0.589
AGARMYGVLPW [PLP1_Y207_D203G]	0.667

[Q] Recorded phosphorylation enrichment of TVSSDYLHPQY [CCPG1_Y569_F566S] , please.
[A] 0.521

[Q] Recorded phosphorylation enrichment of APRKVYDTQDD [ZFPL1_Y215_R218Q] , please.
[A] 0.766

[Q] Recorded phosphorylation enrichment of WGLRSYFETSK [MAGED2_Y448_YF] , please.
[A] 0.517

[Q] Recorded phosphorylation enrichment of KKFPDYIQIAM [SGMS2_Y59_YF] , please.
[A] 0.7

[Q] Recorded phosphorylation enrichment of FIAVGYVDDSQ [HLA-A_Y51_T55S] , please.
[A] 0.617

[Q] Recorded phosphorylation enrichment of VVSLFYGTALF [OR10C1_Y251_M246V] , please.
[A] 1.21

[Q] Recorded phosphorylation enrichment of YQKDVYDIPPS [NEDD9_Y177] , please.
[A] 0.734

[Q] Recorded phosphorylation enrichment of NTGFFYDLFGG [PTPN11_Y63_D61Y_YF] , please.
[A] 0.869

[Q] Recorded phosphorylation enrichment of NHRNQYQALKT [CLSPN_Y887_P892T] , please.
[A] 0.753
